The reader will find reported pIC50 values listed item by item below.
# experimental details: Antioxidant activity assessed as DPPH radical scavenging activity after 30 mins
# Type: physicochemical
By convention, pIC50 is the negative base-10 log of a molar concentration.

molecule | readout name | measured result
O=C(O)[C@H]1O[C@@H](Oc2cc3oc(-c4ccc(O)cc4)cc(=O)c3c(O)c2O)[C@H](O)[C@@H](O)[C@@H]1O [SCUTELLARIN] | pIC50 | 4.55
COc1c(O)c(O)cc2oc(-c3ccc(O)cc3)cc(=O)c12 | pIC50 | 4.54
COc1ccc(-c2cc(=O)c3c(O)c(OC)c(O)cc3o2)cc1 [PECTOLINARIGENIN] | pIC50 | 3.77
COc1ccc(-c2cc(=O)c3c(O)c(O)c(O)cc3o2)cc1 | pIC50 | 4.60

Suppose we examine the molecule "COc1cc2oc(-c3ccc(O)cc3)cc(=O)c2c(O)c1O" ; what pIC50 value has been reported?
4.52

----------
Below: a set of entries, each annotated with reported solubility at 1 h.
# experimental details: Aqueous solubility of the compound in water after 1 hr by UV-vis spectrophotometer analysis
# Assay type: physicochemical
All answers are understood in µg/mL, so give the number only.

compound | solubility at 1 h [µg/mL]
COc1ccc(-c2cc(=O)c3c(O)c(OC)c(O)cc3o2)cc1 [PECTOLINARIGENIN] | 1.36

Data request, read-out solubility at 1 h, for COc1c(O)cc2oc(-c3ccc(O)cc3)cc(=O)c2c1O [HISPIDULIN]
4.27

Quick check: solubility at 1 h of COc1ccc(-c2cc(=O)c3c(O)c(O)c(OC)cc3o2)cc1 [LADANEIN] ?
3.2

Query (compound): "COc1ccc(-c2cc(=O)c3c(O)c(O)c(O)cc3o2)cc1" ; field requested: solubility at 1 h
6.31

Entry "COc1c(O)c(O)cc2oc(-c3ccc(O)cc3)cc(=O)c12" : reported solubility at 1 h = ?
5.72

Which solubility at 1 h value is on record for "COc1cc2oc(-c3ccc(O)cc3)cc(=O)c2c(O)c1O" ?
4.56

If you can, please state the reported solubility at 1 h value of COc1ccc(-c2cc(=O)c3c(O)c(OC)c(OC)cc3o2)cc1 [SALVIGENIN] .
0.31

Give the measured solubility at 1 h of COc1cc2oc(-c3ccc(O)cc3)cc(=O)c2c(O)c1OC [CIRSIMARITIN] .
1.53

----------
# experimental details: N-octanol/0.15 M NaCl partition coefficient, log P of the compound after 5 hrs by spectrophotometric analysis
# Assay type: physicochemical
Classification field. Basis: logP at 5 h. Definitions: bottom bin: < 1; middle bin: ≥ 1 and < 2; top bin: ≥ 2

chemical structure | category
COc1cc2oc(-c3ccc(O)cc3)cc(=O)c2c(O)c1OC | top bin

Band for the recorded logP at 5 h of "COc1c(O)c(O)cc2oc(-c3ccc(O)cc3)cc(=O)c12" ?
middle bin

Consider "COc1ccc(-c2cc(=O)c3c(O)c(O)c(O)cc3o2)cc1" . To which logP at 5 h class does it belong?
middle bin

Lab log: "O=c1cc(-c2ccc(O)cc2)oc2cc(O)c(O)c(O)c12" — assign logP at 5 h category
bottom bin

----------
# experimental details: Antioxidant activity in rat PC12 cells assessed as inhibition of H2O2-induced cytotoxicity at 50 uM after 4 hrs by MTT assay
# Format: functional
# run parameters: PC-12, 4 h
inhibition at 50 µM values for the molecules below.
Record the value in %, omitting the unit from your answer.

A selection of reference data follows.
chemical structure | inhibition at 50 µM / %
COc1ccc(-c2cc(=O)c3c(O)c(O)c(O)cc3o2)cc1 | 89.4
COc1ccc(-c2cc(=O)c3c(O)c(O)c(OC)cc3o2)cc1 | 74.3
COc1cc2oc(-c3ccc(O)cc3)cc(=O)c2c(O)c1O | 82.3
COc1c(O)c(O)cc2oc(-c3ccc(O)cc3)cc(=O)c12 | 81.4
COc1ccc(-c2cc(=O)c3c(O)c(OC)c(OC)cc3o2)cc1 | 20.4
COc1ccc(-c2cc(=O)c3c(O)c(OC)c(O)cc3o2)cc1 | 68.1

Can you share its inhibition at 50 µM? I mean this molecule: "COc1cc2oc(-c3ccc(O)cc3)cc(=O)c2c(O)c1OC"
76.1

Please give the measured inhibition at 50 µM for this molecule: "O=C(O)[C@H]1O[C@@H](Oc2cc3oc(-c4ccc(O)cc4)cc(=O)c3c(O)c2O)[C@H](O)[C@@H](O)[C@@H]1O"
79.2

I am curious: what inhibition at 50 µM value has been reported for "COc1c(O)cc2oc(-c3ccc(O)cc3)cc(=O)c2c1O" ?
88

Tell me the measured inhibition at 50 µM of "O=c1cc(-c2ccc(O)cc2)oc2cc(O)c(O)c(O)c12" , please.
91.2
